pIC50 data for GFAT-alpha (Homo sapiens, UniProt Q06210) follow.
Quick note: pIC50 means taking -log10 of the concentration in moles per liter.

What value of measured pIC50 is listed for `N[C@@H](CNC(=O)CBr)C(=O)O` ?
6.42

Also need `[N-]=[N+]=CC(=O)CC[C@H](N)C(=O)O` , thanks.
4.74

Also need `COC(=O)/C=C/C(=O)NC[C@H](N)C(=O)O` , thanks.
5.40

====

Please respond with reported IC50 for every item in the list.
- target_under_test: GFAT-beta (Homo sapiens, UniProt O94808)
- Construct: made in house; host or cells: SF9 insect cells (sonicated, centrifuged cell extract, not purified)
- Sequence (O94808 whole entry): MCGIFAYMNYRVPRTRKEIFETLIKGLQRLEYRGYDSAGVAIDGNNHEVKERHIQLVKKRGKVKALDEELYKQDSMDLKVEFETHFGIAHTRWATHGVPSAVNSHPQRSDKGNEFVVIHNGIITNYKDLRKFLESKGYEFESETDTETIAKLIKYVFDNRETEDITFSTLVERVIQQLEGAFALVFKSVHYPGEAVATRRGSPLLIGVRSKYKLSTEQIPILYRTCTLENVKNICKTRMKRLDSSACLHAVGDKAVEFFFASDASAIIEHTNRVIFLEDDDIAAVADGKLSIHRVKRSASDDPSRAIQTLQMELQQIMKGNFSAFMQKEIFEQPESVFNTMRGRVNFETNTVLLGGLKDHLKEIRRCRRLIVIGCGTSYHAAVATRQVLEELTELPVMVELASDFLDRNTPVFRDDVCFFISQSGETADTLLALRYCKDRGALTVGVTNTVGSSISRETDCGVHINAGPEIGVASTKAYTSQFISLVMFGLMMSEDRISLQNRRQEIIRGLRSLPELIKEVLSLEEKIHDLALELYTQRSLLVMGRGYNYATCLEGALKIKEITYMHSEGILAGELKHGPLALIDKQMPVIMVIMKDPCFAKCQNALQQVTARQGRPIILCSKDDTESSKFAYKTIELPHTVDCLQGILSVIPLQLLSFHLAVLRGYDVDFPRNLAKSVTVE
- measurement_notes: GFAT-beta inhibition, microtiter plate glucosamine 6-phosphate assay
- Type: biochemical
- protocol_conditions: enzyme expressed in SF9 insect cells; glutamine 10 mM, fructose 6-phosphate 10 mM; 60 minutes at 37° C.; read-out: IC50 for inhibition of GFAT-beta

What value of measured IC50 is listed for `N[C@@H](CNC(=O)CBr)C(=O)O` ?
270 nM

Also need `COC(=O)/C=C/C(=O)NC[C@H](N)C(=O)O` , thanks.
2300 nM

====

- target_under_test: GFAT-beta (Homo sapiens, UniProt O94808)
- Construct: made in house; host or cells: SF9 insect cells (sonicated, centrifuged cell extract, not purified)
- measurement_notes: GFAT-beta inhibition, microtiter plate glucosamine 6-phosphate assay
- Assay type: biochemical
experimental_readout: pIC50
Quick note: pIC50 means taking -log10 of the concentration in moles per liter.

What value of measured pIC50 is listed for `[N-]=[N+]=CC(=O)CC[C@H](N)C(=O)O` ?
4.74

Data credit: patent US20040191811A1
